Target: Steroid Delta-isomerase (Pseudomonas putida, UniProt P07445)
Sequence (P07445 whole entry): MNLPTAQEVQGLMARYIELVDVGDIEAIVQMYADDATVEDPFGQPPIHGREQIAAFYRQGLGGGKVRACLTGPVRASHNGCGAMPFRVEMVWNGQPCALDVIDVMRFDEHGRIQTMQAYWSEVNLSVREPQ
Assay: Binding affinity to Pseudomonas putida KSI by isothermal titration calorimetry
Catalogue of Kd values
Unit µM implied. Number only.

Compound	Test Target	Endpoint Unit	Kd
Cc1nnc2ccc(N3CCCC3)nn12	Steroid Delta-isomerase (Pseudomonas putida, UniProt P07445)	µM	22

Ask: Requested read-out: Kd. Entry: C[C@H](CCC(=O)O)[C@H]1CC[C@H]2[C@@H]3CC[C@@H]4C[C@H](O)CC[C@]4(C)[C@H]3C[C@H](O)[C@]12C
Result: 16

Ask: Please report the recorded Kd for NC(=O)Nc1cccc(C(F)(F)F)c1 .
Result: 46

Ask: Using the record for CN1CCC2(C)c3cc(O)ccc3N(C)C12 (stereo unspecified) , report its Kd.
Result: 180

Ask: Which Kd reading was recorded for the compound Cn1cc(C(N)=O)c2ccccc21 ?
Result: 63

Ask: Using the record for NC(=O)/C=C/c1cccc(C(F)(F)F)c1 , report its Kd.
Result: 50
